Where do these numbers come from? They come from the supplement of paper PMC11246515.

assay: total protein half-life in vivo (active degradation + dilution); higher = more stable protein; conditions: wild type E. coli NCM3722; growth: N-lim chemostat; doubling time 6 h
Recorded measurements of total protein half-life in vivo, one per entry

| Seq | Unit Of Measure | total protein half-life in vivo |
| --- | --- | --- |
| MQNRLTIKDIARLSGVGKSTVSRVLNNESGVSQLTRERVEAVMNQHGFSPSRSARAMRGQSDKVVAIIVTRLDSLSENLAVQTMLPAFYEQGYDPIMMESQFSPQLVAEHLGVLKRRNIDGVVLFGFTGITEEMLAHWQSSLVLLARDAKGFASVCYDDEGAIKILMQRLYDQGHRNISYLGVPHSDVTTGKRRHEAYLAFCKAHKLHPVAALPGLAMKQGYENVAKVITPETTALLCATDTLALGASKYLQEQRIDTLQLASVGNTPLMKFLHPEIVTVDPGYAEAGRQAACQLIAQVTGRSEPQQIIIPATLS | h | 5.04 |
| MHEITLCQRALELIEQQAAKHGAKRVTGVWLKIGAFSCVETSSLAFCFDLVCRGSVAEGCKLHLEEQEAECWCETCQQYVTLLTQRVRRCPQCHGDMLQIVADDGLQIRRIEIDQE [P0A700] | h | 2.36 |
| MTVRVAINGFGRIGRNVVRALYESGRRAEITVVAINELADAAGMAHLLKYDTSHGRFAWEVRQERDQLFVGDDAIRVLHERSLQSLPWRELGVDVVLDCTGVYGSREHGEAHIAAGAKKVLFSHPGSNDLDATVVYGVNQDQLRAEHRIVSNASCTTNCIIPVIKLLDDAYGIESGTVTTIHSAMHDQQVIDAYHPDLRRTRAASQSIIPVDTKLAAGITRFFPQFNDRFEAIAVRVPTINVTAIDLSVTVKKPVKANEVNLLLQKAAQGAFHGIVDYTELPLVSVDFNHDPHSAIVDGTQTRVSGAHLIKTLVWCDNEWGFANRMLDTTLAMATVAFR [P0A9B6] | h | 3.49 |
| MFKPHVTVACVVHAEGKFLVVEETINGKALWNQPAGHLEADETLVEAAARELWEETGISAQPQHFIRMHQWIAPDKTPFLRFLFAIELEQICPTQPHDSDIDCCRWVSAEEILQASNLRSPLVAESIRCYQSGQRYPLEMIGDFNWPFTKGVI [P0AEI6] | h | 4.54 |
| MLTVKQIEAAKPKEKPYRLLDGNGLYLYVPVSGKKVWQLRYKIDGKEKILTVGKYPLMTLQEARDKAWTARKDISVGIDPVKAKKASSNNNSFSAIYKEWYEHKKQVWSVGYATELAKMFDDDILPIIGGLEIQDIEPMQLLEVIRRFEDRGAMERANKARRRCGEVFRYAIVTGRAKYNPAPDLADAMKGYRKKNFPFLPADQIPAFNKALATFSGSIVSLIATKVLRYTALRTKELRSMLWKNVDFENRIITIDASVMKGRKIHVVPMSDQVVELLTTLSSITKPVSEFVFAGRNDKKKPICENAVLLVIKQIGYEGLESGHGFRHEFSTIMNEHEWPADAIEVQLAHANGGSVRGIYNHAQYLDKRREMMQWWADWLDEKVE | h | 5.5 |
| MTEAQRHQILLEMLAQLGFVTVEKVVERLGISPATARRDINKLDESGKLKKVRNGAEAITQQRPRWTPMNLHQAQNHDEKVRIAKAASQLVNPGESVVINCGSTAFLLGREMCGKPVQIITNYLPLANYLIDQEHDSVIIMGGQYNKSQSITLSPQGSENSLYAGHWMFTSGKGLTAEGLYKTDMLTAMAEQKMLSVVGKLVVLVDSSKIGERAGMLFSRADQIDMLITGKNANPEILQQLEAQGVSILRV [P0A9W0] | h | 5.68 |

* * *

assay: total protein half-life in vivo (active degradation + dilution); higher = more stable protein; details: E. coli NCM3722 delta-smpB; growth: N-lim chemostat; doubling time 6 h

| Seq | total protein half-life in vivo [h] |
| --- | --- |
| MLINIGRLLMLCVWGFLILNLVHPFPRPLNIFVNVALIFTVLMHGMQLALLKSTLPKDGPQMTTAEKVRIFLFGVFELLAWQKKFKVKK | 6.18 |
| MLARGKTNLKIEEIRMHKHHEIHRVKPLMPALCRIRQGKKVINWETHTLTVDNNQIILFPCGYEFYIENYPEAGLYLAEMLYLPIDLIESFQKLYTVTDQIRNKTSFFLPQNPELIYCWEQLKTSVSRGFSTKIQEHLAMGVLLSLGVNHVNHLLLSYSKQSLISRCYNLLLSEPGTKWTANKVARYLYISVSTLHRRLASEGVSFQSILDDVRLNNALSAIQTTVKPISEIARENGYKCPSRFTERFHNRFNITPREIRKASRE | 3.44 |

* * *

experiment: total protein half-life in vivo (active degradation + dilution); higher = more stable protein; conditions: wild type E. coli NCM3722; growth: C-lim chemostat; doubling time 3 h
Measurement Label: total protein half-life in vivo (h)

| Seq | Measurement Label | Measured Value |
| --- | --- | --- |
| MLKRVFLSLLVLIGLLLLTVLGLDRWMSWKTAPYIYDELQDLPYRQVGVVLGTAKYYRTGVINQYYRYRIQGAINAYNSGKVNYLLLSGDNALQSYNEPMTMRKDLIAAGVDPSDIVLDYAGFRTLDSIVRTRKVFDTNDFIIITQRFHCERALFIALHMGIQAQCYAVPSPKDMLSVRIREFAARFGALADLYIFKREPRFLGPLVPIPAMHQVPEDAQGYPAVTPEQLLELQKKQGK [P0AFY2] | total protein half-life in vivo | 3.1 |
| MSNTYQKRKASKEYGLYNQCKKLNDDELFRLLDDHNSLKRISSARVLQLRGGQDAVRLAIEFCSDKNYIRRDIGAFILGQIKICKKCEDNVFNILNNMALNDKSACVRATAIESTAQRCKKNPIYSPKIVEQSQITAFDKSTNVRRATAFAISVINDKATIPLLINLLKDPNGDVRNWAAFAININKYDNSDIRDCFVEMLQDKNEEVRIEAIIGLSYRKDKRVLSVLCDELKKNTVYDDIIEAAGELGDKTLLPVLDTMLYKFDDNEIITSAIDKLKRS [P0ADK6] | total protein half-life in vivo | 2.02 |
| MMIRERIEEKLRAAFQPVFLEVVDESYRHNVPAGSESHFKVVLVSDRFTGERFLNRHRMIYSTLAEELSTTVHALALHTYTIKEWEGLQDTVFASPPCRGAGSIA [P0ABE2] | total protein half-life in vivo | 1.53 |

* * *

Recorded measurements of total protein half-life in vivo, one per entry
experiment: total protein half-life in vivo (active degradation + dilution); higher = more stable protein; conditions: E. coli NCM3722 delta-clpP delta-lon delta-hslV; growth: N-lim chemostat; doubling time 6 h
Measurement Label: total protein half-life in vivo (h)

| Seq | Unit Of Measure | Measured Value |
| --- | --- | --- |
| MSFFHASQRDALNQSLAEVQGQINVSFEFFPPRTSEMEQTLWNSIDRLSSLKPKFVSVTYGANSGERDRTHSIIKGIKDRTGLEAAPHLTCIDATPDELRTIARDYWNNGIRHIVALRGDLPPGSGKPEMYASDLVTLLKEVADFDISVAAYPEVHPEAKSAQADLLNLKRKVDAGANRAITQFFFDVESYLRFRDRCVSAGIDVEIIPGILPVSNFKQAKKFADMTNVRIPAWMAQMFDGLDDDAETRKLVGANIAMDMVKILSREGVKDFHFYTLNRAEMSYAICHTLGVRPGL [P0AEZ1] | h | 3.64 |
| MKLVGSYTSPFVRKLSILLLEKGITFEFINELPYNADNGVAQFNPLGKVPVLVTEEGECWFDSPIIAEYIELMNVAPAMLPRDPLESLRVRKIEALADGIMDAGLVSVREQARPAAQQSEDELLRQREKINRSLDVLEGYLVDGTLKTDTVNLATIAIACAVGYLNFRRVAPGWCVDRPHLVKLVENLFSRESFARTEPPKA [P0ACA1] | h | 5.35 |
| MADEIDAMALYRAWQQLDNGSCAQIRRVSEPDELRDIPAFYRLVQPFGWENPRHQQALLRMVFCLSAGKNVIRHQDKKSEQTTGISLGRALANSGRINERRIFQLIRADRTADMVQLRRLLTHAEPVLDWPLMARMLTWWGKRERQQLLEDFVLTTNKNA | h | 5.62 |

* * *

experiment: total protein half-life in vivo (active degradation + dilution); higher = more stable protein; conditions: E. coli NCM3722 delta-hslV; growth: N-lim chemostat; doubling time 6 h
Measurement Label: total protein half-life in vivo (h)

| Seq | Measurement Label | Prefix Operator | Measured Value |
| --- | --- | --- | --- |
| MKLISNDLRDGDKLPHRHVFNGMGYDGDNISPHLAWDDVPAGTKSFVVTCYDPDAPTGSGWWHWVVVNLPADTRVLPQGFGSGLVAMPDGVLQTRTDFGKTGYDGAAPPKGETHRYIFTVHALDIERIDVDEGASGAMVGFNVHFHSLASASITAMFS | total protein half-life in vivo | > | 8 |
| MVTFHTNHGDIVIKTFDDKAPETVKNFLDYCREGFYNNTIFHRVINGFMIQGGGFEPGMKQKATKEPIKNEANNGLKNTRGTLAMARTQAPHSATAQFFINVVDNDFLNFSGESLQGWGYCVFAEVVDGMDVVDKIKGVATGRSGMHQDVPKEDVIIESVTVSE | total protein half-life in vivo | = | 4.92 |
